Values compiled from paper PMC12543186.

Molecular target: α-glucosidase from Saccharomyces cerevisiae (Saccharomyces cerevisiae, UniProt P38158)
Sequence (P38158 whole entry): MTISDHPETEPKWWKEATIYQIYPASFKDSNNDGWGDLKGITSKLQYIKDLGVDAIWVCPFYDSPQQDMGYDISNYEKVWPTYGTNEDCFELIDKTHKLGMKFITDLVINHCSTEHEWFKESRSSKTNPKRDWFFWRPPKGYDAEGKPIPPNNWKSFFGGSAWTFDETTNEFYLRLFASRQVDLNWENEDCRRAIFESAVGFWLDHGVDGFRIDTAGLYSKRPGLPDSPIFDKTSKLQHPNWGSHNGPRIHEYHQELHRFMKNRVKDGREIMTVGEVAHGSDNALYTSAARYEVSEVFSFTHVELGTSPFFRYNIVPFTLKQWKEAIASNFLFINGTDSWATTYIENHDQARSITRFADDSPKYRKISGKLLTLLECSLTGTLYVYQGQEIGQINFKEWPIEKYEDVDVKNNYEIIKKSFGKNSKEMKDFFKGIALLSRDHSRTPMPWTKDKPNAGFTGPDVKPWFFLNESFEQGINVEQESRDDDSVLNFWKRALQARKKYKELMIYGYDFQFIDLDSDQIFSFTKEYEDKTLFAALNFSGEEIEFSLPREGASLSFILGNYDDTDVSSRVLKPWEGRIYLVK
Experiment: Surface plasmon resonance, steady-state affinity
Type: binding
Settings: SPR steady-state affinity model, 25 °C, immobilized yeast α-glucosidase; read-out: dissociation constant (KD)
Observed property: Kd (µM)
Numbers only; they are read as µM.

Input C=C1CC[C@@H]2[C@](C)(CO)[C@H](O)CC[C@@]2(C)[C@@H]1C/C=C1/C(=O)OC[C@H]1O [Andrographolide] . Output Kd: 137

----------
Target: UniProtKB P38158
Assay: Surface plasmon resonance, steady-state affinity
Format: binding
Observed property: Kd (µM)
Numbers only; they are read as µM.

Input C=C1CCC2C(C)(COC(C)=O)C(OC(C)=O)CCC2(C)C1CC(SC(=S)N1CCN(c2ccc(O)cc2)CC1)C1=CCOC1=O (stereo not shown) . Output Kd: 12.9
